Hi there, I'd appreciate the recorded Residual nisin concentration for every entry that follows.
- ASSAY_REMARKS: Nisin stability in topical germicide formulations under stressed conditions (RPHPLC)
- CONDITIONS_USED: T-MAZ 20 BATCH 357; 2 weeks at 40° C.; nisin formulated at 25 μg/ml; label nisin = water control
# value in µg/mL; strip the unit string

Query: Given the compound N[C@@H](CSSC[C@H](N)C(=O)O)C(=O)O , what is its reported Residual nisin concentration?
Response: 11.1

Query: Given the compound N[C@@H](CS(=O)(=O)O)C(=O)O , what is its reported Residual nisin concentration?
Response: 19.5

Query: Given the compound CSCCC(O)C(=O)O (racemic) [MHA, 2-hydroxy-4-(methylthio)butanoic acid] , what is its reported Residual nisin concentration?
Response: 22.5

Query: Given the compound C1CSCN1 , what is its reported Residual nisin concentration?
Response: 17.3

Query: Given the compound N[C@@H](CSC[C@H](N)C(=O)O)C(=O)O , what is its reported Residual nisin concentration?
Response: 18.2

Query: Given the compound CSCC[C@H](N)C(=O)O , what is its reported Residual nisin concentration?
Response: 23.2

* * *

Hi there, I'd appreciate the recorded Residual nisin concentration for every entry that follows.
- ASSAY_REMARKS: Nisin stability in topical germicide formulations under stressed conditions (RPHPLC)
- CONDITIONS_USED: T-MAZ 20 1%; 6 days at 40° C.; initial nisin 25 μg/ml; label nisin = no methionine
# value in µg/mL; strip the unit string

Query: Given the compound CSCCC(N)C(=O)O (racemic) , what is its reported Residual nisin concentration?
Response: 19.7

Query: Given the compound CSCC[C@H](N)C(=O)O , what is its reported Residual nisin concentration?
Response: 19.9

Query: Given the compound C[S+]([O-])CCC(N)C(=O)O (racemic) [DL-methionine sulfoxide] , what is its reported Residual nisin concentration?
Response: 8.6

Query: Given the compound CS(=O)(=O)CCC(N)C(=O)O (racemic) , what is its reported Residual nisin concentration?
Response: 8.6

* * *

Hi there, I'd appreciate the recorded Residual nisin concentration for every entry that follows.
- ASSAY_REMARKS: Nisin stability in topical germicide formulations under stressed conditions (RPHPLC)
- CONDITIONS_USED: T-MAZ 20 BATCH 348; 2 weeks at 40° C.; nisin formulated at 25 μg/ml; label nisin = water control

Query: Given the compound N[C@@H](CSC[C@H](N)C(=O)O)C(=O)O , what is its reported Residual nisin concentration?
Response: 10.7 µg/mL

Query: Given the compound CSCC[C@H](N)C(=O)O , what is its reported Residual nisin concentration?
Response: 23.3 µg/mL

Query: Given the compound CSCCC(O)C(=O)O (racemic) [MHA, 2-hydroxy-4-(methylthio)butanoic acid] , what is its reported Residual nisin concentration?
Response: 23.4 µg/mL

Query: Given the compound N[C@@H](CSSC[C@H](N)C(=O)O)C(=O)O , what is its reported Residual nisin concentration?
Response: 9.0 µg/mL

Query: Given the compound N[C@@H](CS(=O)(=O)O)C(=O)O , what is its reported Residual nisin concentration?
Response: 9.6 µg/mL

Query: Given the compound C1CSCN1 , what is its reported Residual nisin concentration?
Response: 14.9 µg/mL
